- System: UACC-257
- experimentDescription: NCI tumour cell line growth inhibition, 48 h
Activity calls are given as the source filed them. Rule as the data show it: active = GI50 up to about 1.1 µM and inactive = higher.
Classes to choose from: active, inactive

Sample answers from the record:
| compound | assignedClass |
| --- | --- |
| CCCCNc1c(CN)cnc2cc(Cl)ccc12 | inactive |
| O=C(O)/C(=C/c1ccccc1[N+](=O)[O-])c1ccccc1 | inactive |
| c1ccc2c(OCC3CO3)ccc(OCC3CO3)c2c1 (stereo not drawn) | inactive |
| CN1CCN(Cc2cc3c(nn2)-c2ccccc2C3=O)CC1 | inactive |
| O=C(/C=C\c1ccc(Cl)c(Cl)c1)c1ccc(Cl)cc1Cl | inactive |

Problem: Fill in: this test's call for CC(C)(C)OC(=O)NCCCNC1(c2cc3ccccc3s2)CCCCC1 is ___
Solution: inactive

Problem: Fill in: this test's call for CCN(CCCl)c1cc(CN(C)C)cc(NC(=O)c2ccc(C(=O)Nc3ccccc3)cc2)c1 is ___
Solution: inactive

Problem: Fill in: this test's call for CSc1nc(CO)c(CO)n1C is ___
Solution: inactive

Problem: Fill in: this test's call for O=Cc1ccc(Oc2c3ccccc3nc3ccccc23)cc1 is ___
Solution: active

Problem: Fill in: this test's call for COc1cc(C(c2cccc3ccccc23)N2C(=O)CCC2C(=O)NCc2ccccc2)cc(OC)c1OC (stereo not drawn) is ___
Solution: inactive

Problem: Fill in: this test's call for C=CC1(CBr)CCC(C(C)(C)Br)O1 (stereo not drawn) is ___
Solution: inactive

Problem: Fill in: this test's call for C=C1C(=O)O[C@H](c2ccoc2)C[C@@H]1[C@@]1(C)CCCC2(C)C(=O)OCC21 (stereo partly drawn) is ___
Solution: inactive

Problem: Fill in: this test's call for CC(=O)Oc1cc2c(cc1OC(C)=O)OCC(c1ccccc1)C2 (stereo not drawn) is ___
Solution: inactive

Problem: Fill in: this test's call for CN(C)Cc1cc(C(=O)/C=C/c2ccc(/C=C/C(=O)c3cc(CN(C)C)c(O)c(CN(C)C)c3)cc2)cc(CN(C)C)c1O is ___
Solution: inactive

Problem: Fill in: this test's call for O=C(Cn1c2c(c3ccccc31)CCCC2)NC1CCCCC1 is ___
Solution: inactive

Problem: Fill in: this test's call for COC(=O)/C(C)=N/N=C(\S)SC is ___
Solution: inactive

Problem: Fill in: this test's call for CC1=C(C(=O)Nc2ccccc2C)C(/C=C/c2ccccc2)C(C(=O)Nc2ccccc2C)=C(C)N1 is ___
Solution: inactive

Problem: Fill in: this test's call for CC1C2CCC3C(O)C2(CC(O)C2(O)C1CC(O)C2(C)C)CC3(C)O (stereo not drawn) is ___
Solution: inactive

Problem: Fill in: this test's call for OC[C@@H](O)[C@H](O)[C@H](O)[C@@H](O)C1SCCCS1 is ___
Solution: inactive

Problem: Fill in: this test's call for N=c1c2c(-c3ccccc3)c[nH]c2ncn1N is ___
Solution: inactive

Problem: Fill in: this test's call for NC(=O)C(=CN1C(=O)CC(=O)NC1=S)C(N)=O is ___
Solution: inactive

Problem: Fill in: this test's call for O=C(c1ccccc1)c1ccc2n[se]nc2c1 is ___
Solution: inactive

Problem: Fill in: this test's call for COc1ccc(NC/C=C/C(=C/COC(C)=O)OC(C)=O)cc1 is ___
Solution: inactive
